Entry source: patent US10517889B2

# Tested on: human SMAD7 mRNA
# EXPERIMENTAL DETAILS: Antisense inhibition of human SMAD7 mRNA expression in Hep3B cells by 5-10-5 MOE gapmers, single concentration, electroporation, RT-PCR (Example 1, Study 1 and 2)
# Assay type: cell-based
# RUN CONDITIONS: Study 2, electroporation with 15,000 nM antisense oligonucleotide, 5-10-5 MOE gapmers targeting SEQ ID NO: 1 and 2
Strand notation (5' to 3'): a small letter for the sugar, then the base; units joined by * are phosphorothioate-linked, units joined directly phosphodiester-linked; [ ] holds rarer units or linkages, { } end groups; capitals alone tell only the bases. e = 2'-O-(2-methoxyethyl) (MOE); [5mC] = 5-methylcytosine; d = 2'-deoxy (DNA)
Can you tell me % Inhibition for the items I'm about to list?
One number for each entry, in %.

SUBSTANCE	ENDPOINT UNIT	% Inhibition
771710 (antisense eG*eG*eG*e[5mC]*eT*dG*d[5mC]*d[5mC]*d[5mC]*dA*dT*dT*d[5mC]*d[5mC]*dT*eA*eG*e[5mC]*eG*e[5mC]) [compound 771710]	%	40
771900 (antisense eA*eT*eG*e[5mC]*e[5mC]*d[5mC]*dA*d[5mC]*d[5mC]*dA*dG*dT*d[5mC]*dT*dT*e[5mC]*e[5mC]*eT*eG*eA) [compound 771900]	%	32
771700 (antisense eT*eA*eT*eG*e[5mC]*dA*d[5mC]*dA*d[5mC]*dT*d[5mC]*dT*d[5mC]*d[5mC]*d[5mC]*eA*eG*eG*eA*eG) [compound 771700]	%	9
771431 (eG*e[5mC]*e[5mC]*e[5mC]*e[5mC]*d[5mC]*dG*dG*d[5mC]*d[5mC]*dG*d[5mC]*dG*d[5mC]*d[5mC]*eG*eG*e[5mC]*eG*e[5mC]; antisense) [compound 771431]	%	37

Let's switch to this substance now.
[Q] Lookup: % Inhibition / human SMAD7 mRNA / 771775 (antisense eA*eA*eT*eG*e[5mC]*d[5mC]*dA*dA*dA*dT*dG*d[5mC]*d[5mC]*d[5mC]*dA*eA*eA*eA*e[5mC]*eT) [compound 771775]
[A] 41
